Values compiled from the supplement of paper PMC11908140.

B1: library; numbered along this chain (parent)
chain: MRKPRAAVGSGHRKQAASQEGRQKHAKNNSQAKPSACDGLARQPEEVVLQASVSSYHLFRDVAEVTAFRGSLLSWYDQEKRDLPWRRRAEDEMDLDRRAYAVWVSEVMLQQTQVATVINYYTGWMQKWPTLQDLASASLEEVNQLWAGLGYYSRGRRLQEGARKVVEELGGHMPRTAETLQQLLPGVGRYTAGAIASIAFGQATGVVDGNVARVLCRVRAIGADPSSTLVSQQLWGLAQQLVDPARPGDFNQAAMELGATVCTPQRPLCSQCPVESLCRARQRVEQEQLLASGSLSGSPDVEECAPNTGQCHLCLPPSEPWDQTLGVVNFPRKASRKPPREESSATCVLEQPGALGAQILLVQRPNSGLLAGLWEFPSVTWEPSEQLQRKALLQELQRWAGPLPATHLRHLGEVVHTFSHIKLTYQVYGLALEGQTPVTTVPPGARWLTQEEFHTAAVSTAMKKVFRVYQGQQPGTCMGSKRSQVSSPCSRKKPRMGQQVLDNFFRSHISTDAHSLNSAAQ

variants of: B1; assay: 8OG:A repair function score (normalized; synonymous = 0, nonsense = -1) (normalized log-likelihood score); higher = more repair activity (WT-like); details: with 8OG:A DNA repair reporter (GFP) in HEK-293 MUTYH KO cells;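 also: cells sorted at 72 h after reporter transfection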
Listed variants paired with reported 8OG:A repair function score
The answer should be written as a number, with no unit following it.

# example entries with known answers
MUTATION_STRING	VALUE_OBSERVED
Q181D	-0.331
L241G	-0.827
T440A	-0.131
L109W	-0.957

So what does the record say about 8OG:A repair function score for P267M ?
-0.774

Input P442W
-0.205

Input E167I
-0.0169

Input Q50D
0.088

Input E287G
-0.0256

Input V214N
-0.833
